The values you see were collected from paper PMC5216056.

Measured RE cAMP, listed per entry.
target: UniProtKB P47936; assay: Operational analysis of biased signalling; settings: relative effectiveness
Sequence (P47936 whole entry): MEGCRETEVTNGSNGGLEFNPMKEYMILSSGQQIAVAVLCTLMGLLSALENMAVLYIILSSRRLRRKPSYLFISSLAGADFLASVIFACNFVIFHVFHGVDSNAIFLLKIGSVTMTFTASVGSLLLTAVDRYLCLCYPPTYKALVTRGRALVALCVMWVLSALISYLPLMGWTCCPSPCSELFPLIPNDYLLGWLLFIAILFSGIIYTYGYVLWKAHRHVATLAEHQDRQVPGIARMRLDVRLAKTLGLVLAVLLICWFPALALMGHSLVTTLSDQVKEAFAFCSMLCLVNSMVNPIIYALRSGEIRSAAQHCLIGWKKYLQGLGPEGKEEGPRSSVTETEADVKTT
Could you keep your reply to the number by itself?

These recorded examples may help you get a feel for the data.
CCCC(C)(C)c1ccc2c(c1)OC(C)(C)[C@@H]1CC=C(C)C[C@@H]21 : 0.004
CCCCCCC(C)(C)c1ccc([C@@H]2C[C@H](O)CC[C@H]2CCCO)c(O)c1 : 1.00
CCCCCCC(C)(C)c1cc(OC)c(C2=C[C@H]3CC[C@]2(CO)C3(C)C)c(OC)c1 : 0.009

Then there is this compound:
// query What value of measured RE cAMP is listed for CCCCCCC(C)(C)c1cc(OC)c([C@@H]2C=C(CO)[C@@H]3C[C@H]2C3(C)C)c(OC)c1 ?
// result 0.004
